Origin of the recorded values: patent US8110580B2

molecular target: human CRF1 (Homo sapiens, UniProt P34998); assay: CRF1 filter binding assay; conditions: HEK-hCRF1 membranes; 125I-Sauvagine (4 nM) in roller/adherent cells; read-out: Ki (inhibition constant), inhibition of binding of 125I-Sauvagine
Sequence (P34998 24-415): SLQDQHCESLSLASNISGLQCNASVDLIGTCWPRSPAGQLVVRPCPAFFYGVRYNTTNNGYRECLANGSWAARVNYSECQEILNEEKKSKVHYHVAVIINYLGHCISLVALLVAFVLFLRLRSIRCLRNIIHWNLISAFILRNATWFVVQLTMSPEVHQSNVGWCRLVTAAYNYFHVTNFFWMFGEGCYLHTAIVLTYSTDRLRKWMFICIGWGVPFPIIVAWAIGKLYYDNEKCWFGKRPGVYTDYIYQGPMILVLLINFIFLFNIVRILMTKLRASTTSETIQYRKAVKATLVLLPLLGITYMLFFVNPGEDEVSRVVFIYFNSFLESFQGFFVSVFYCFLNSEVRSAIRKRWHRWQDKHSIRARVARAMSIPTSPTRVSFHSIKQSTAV
MEASURED METRIC: pKi
pKi is a log-scale quantity: -log10 of the concentration expressed in molar.

Recorded pKi for CCCC(CCC)c1cc(C)nc2c(-c3sc(-c4ncnn4C)cc3Cl)c(C)nn12 , please?
8.36
